Tested on: CD69+B220+ cells
Test: B cell activation assay (IgD-stimulated splenocytes, CD69+B220+ cells by FACS)
Format: cell-based
Details: Mus musculus, Splenocyte, 4 h, IgD 3 μg/mL
Listed next: entries and their corresponding IC50.
State just the number; it will be interpreted in nM.

[Q] Specify IC50 for `Nc1ncnc2c1c(-c1cc(O)c(F)c(F)c1)nn2C1Cc2ccccc2C1` , system CD69+B220+ cells.
[A] 106

[Q] // fetch IC50; item: `Nc1ncnc2c1c(-c1cc(F)c3c(c1)NCCO3)nn2C1Cc2ccccc2C1` ; system: CD69+B220+ cells
[A] 154

[Q] Report measured IC50 on CD69+B220+ cells; entry: `Nc1ncnc2c1c(-c1cc(O)cc(Cl)c1)nn2C1Cc2ccccc2C1`
[A] 109

[Q] Report value only: IC50, CD69+B220+ cells, `Nc1ncnc2c1c(-c1cc(O)cc(F)c1)nn2C1Cc2ccccc2C1`
[A] 183

[Q] Using CD69+B220+ cells as the test system, report measured IC50 of Nc1ncnc2c1c(-c1cc(O)cc(F)c1)nn2C1CCc2ccccc2C1 (single isomer, unassigned) .
[A] 107

---

Measured PI3Kδ @ 0.1 μM (% Inh) by item
Target: PI3Kδ (Homo sapiens, UniProt O00329)
Construct: purchased Reaction Biology Corporation
Sequence (O00329 whole entry): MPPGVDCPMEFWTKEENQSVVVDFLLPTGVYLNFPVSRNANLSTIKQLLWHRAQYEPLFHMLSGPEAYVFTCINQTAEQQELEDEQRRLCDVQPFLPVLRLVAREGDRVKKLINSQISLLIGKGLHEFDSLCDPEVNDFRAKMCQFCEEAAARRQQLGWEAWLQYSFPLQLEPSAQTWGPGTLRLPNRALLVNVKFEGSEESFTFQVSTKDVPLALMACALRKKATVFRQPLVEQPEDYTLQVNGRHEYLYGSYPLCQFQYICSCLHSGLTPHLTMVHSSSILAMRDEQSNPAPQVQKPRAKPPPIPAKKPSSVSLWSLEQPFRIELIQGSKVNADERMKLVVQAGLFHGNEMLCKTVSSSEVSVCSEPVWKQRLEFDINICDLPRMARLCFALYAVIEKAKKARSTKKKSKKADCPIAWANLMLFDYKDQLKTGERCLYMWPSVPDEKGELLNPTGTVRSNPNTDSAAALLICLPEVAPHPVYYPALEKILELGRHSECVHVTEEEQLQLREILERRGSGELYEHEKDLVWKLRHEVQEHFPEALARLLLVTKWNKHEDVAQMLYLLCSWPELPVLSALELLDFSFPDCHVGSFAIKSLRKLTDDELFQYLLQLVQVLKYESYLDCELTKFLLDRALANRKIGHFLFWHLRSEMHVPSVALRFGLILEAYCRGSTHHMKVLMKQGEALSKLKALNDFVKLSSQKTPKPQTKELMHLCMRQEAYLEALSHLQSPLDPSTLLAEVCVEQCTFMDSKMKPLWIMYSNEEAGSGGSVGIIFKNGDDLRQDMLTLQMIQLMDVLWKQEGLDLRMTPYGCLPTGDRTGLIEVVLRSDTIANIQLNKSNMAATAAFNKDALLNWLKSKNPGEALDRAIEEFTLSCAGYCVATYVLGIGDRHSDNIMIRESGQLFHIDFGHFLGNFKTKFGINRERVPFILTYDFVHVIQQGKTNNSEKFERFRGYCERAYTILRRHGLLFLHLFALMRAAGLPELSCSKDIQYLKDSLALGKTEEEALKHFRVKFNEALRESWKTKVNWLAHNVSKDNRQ
Sequence (P27986 whole entry partner): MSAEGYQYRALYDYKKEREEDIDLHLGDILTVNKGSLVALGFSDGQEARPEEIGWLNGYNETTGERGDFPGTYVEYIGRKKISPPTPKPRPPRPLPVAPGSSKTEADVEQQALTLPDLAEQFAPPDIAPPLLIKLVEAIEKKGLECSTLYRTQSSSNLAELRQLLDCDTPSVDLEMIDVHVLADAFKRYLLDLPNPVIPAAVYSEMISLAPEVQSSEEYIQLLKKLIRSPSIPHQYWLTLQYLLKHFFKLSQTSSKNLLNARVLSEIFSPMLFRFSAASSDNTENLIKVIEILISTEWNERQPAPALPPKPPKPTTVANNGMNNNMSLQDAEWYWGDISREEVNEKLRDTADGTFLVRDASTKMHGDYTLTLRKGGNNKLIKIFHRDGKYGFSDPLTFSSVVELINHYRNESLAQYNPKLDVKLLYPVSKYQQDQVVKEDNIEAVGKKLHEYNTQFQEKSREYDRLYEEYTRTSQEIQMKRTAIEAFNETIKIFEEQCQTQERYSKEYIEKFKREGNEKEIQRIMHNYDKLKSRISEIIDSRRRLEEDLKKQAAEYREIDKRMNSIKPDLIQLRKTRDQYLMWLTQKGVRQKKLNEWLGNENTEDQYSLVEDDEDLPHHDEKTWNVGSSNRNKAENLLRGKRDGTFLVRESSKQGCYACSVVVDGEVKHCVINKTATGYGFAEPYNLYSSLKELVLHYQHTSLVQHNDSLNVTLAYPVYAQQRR
Test: PI3Kδ kinase assay (HTRF, PIP3 detection)
Assay type: biochemical
Details: 0.1 μM compound, 10 μM ATP
Please respond with the number in % Inh and leave the unit unwritten.

Solved cases below.
[Q] Entry Nc1ncnc2c1c(-c1ccc(Cl)c(O)c1)nn2C1Cc2ccccc2C1 [Compound No. 56] needs its PI3Kδ @ 0.1 μM (% Inh) filled in; supply it.
[A] 69.44

[Q] Give a short answer stating reported PI3Kδ @ 0.1 μM (% Inh) for Nc1ncnc2c1c(/C=C/CO)nn2C1Cc2ccccc2C1 (single isomer, unassigned) [Compound No. 64] .
[A] 0.0

[Q] Identify PI3Kδ @ 0.1 μM (% Inh) associated with the molecule COc1cc(-c2nn(C3Cc4ccccc4C3)c3ncnc(N)c23)ccc1C [Compound No. 49]
[A] 57.87

Turning to the following molecule.
[Q] Give a short answer stating reported PI3Kδ @ 0.1 μM (% Inh) for Nc1ncnc2c1c(-c1cc(F)c3c(c1)NCCO3)nn2C1CCc2ccccc2C1 (centres unmarked) [compound 124] .
[A] 52.39

---

Each item that follows carries a reported BTK @ 0.01 μM (% Inh).
Target: BTK (Homo sapiens, UniProt Q06187)
Construct: purchased Reaction Biology Corporation
Sequence (Q06187 whole entry): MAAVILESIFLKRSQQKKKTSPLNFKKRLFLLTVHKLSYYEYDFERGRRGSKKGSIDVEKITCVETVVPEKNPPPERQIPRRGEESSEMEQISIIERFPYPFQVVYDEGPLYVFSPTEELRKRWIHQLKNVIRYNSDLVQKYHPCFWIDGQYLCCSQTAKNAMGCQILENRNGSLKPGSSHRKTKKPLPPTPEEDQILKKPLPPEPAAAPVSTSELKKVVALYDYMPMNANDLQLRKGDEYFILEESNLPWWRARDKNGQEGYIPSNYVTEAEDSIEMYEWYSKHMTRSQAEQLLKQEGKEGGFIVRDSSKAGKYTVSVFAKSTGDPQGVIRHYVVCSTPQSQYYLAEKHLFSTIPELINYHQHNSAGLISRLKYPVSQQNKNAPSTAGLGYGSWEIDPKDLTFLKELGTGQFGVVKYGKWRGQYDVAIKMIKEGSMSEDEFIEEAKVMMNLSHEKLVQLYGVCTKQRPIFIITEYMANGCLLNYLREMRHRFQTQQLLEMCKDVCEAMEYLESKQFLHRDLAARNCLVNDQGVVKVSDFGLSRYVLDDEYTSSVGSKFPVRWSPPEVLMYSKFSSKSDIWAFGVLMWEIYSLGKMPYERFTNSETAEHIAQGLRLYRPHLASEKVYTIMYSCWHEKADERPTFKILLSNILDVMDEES
Assay: BTK kinase assay (HotSpot, 33P ATP)
Type: biochemical
Settings: 0.01 μM compound, 10 μM ATP
Answer in % Inh, number only, no unit symbol.

[Q] Provide only the value of recorded BTK @ 0.01 μM (% Inh) for `Nc1ncnc2c1c(-c1cccc(F)c1)nn2C1Cc2ccccc2C1`
[A] 7.67

[Q] Give the reported value of BTK @ 0.01 μM (% Inh) for this record: NC(=O)c1cc(-c2nn(C3CCc4ccccc4C3)c3ncnc(N)c23)cc(O)c1F (centres unmarked)
[A] −2.45

[Q] Determine its reported BTK @ 0.01 μM (% Inh): `N#Cc1cc(-c2nn(C3Cc4ccccc4C3)c3ncnc(N)c23)cc(O)c1F`
[A] 93.67

[Q] Name the recorded BTK @ 0.01 μM (% Inh) of the compound listed here: `Nc1ncnc2c1c(-c1cc(O)c(F)c(F)c1)c(Cl)n2C1Cc2ccccc2C1`
[A] 17.28

[Q] Give the reported value of BTK @ 0.01 μM (% Inh) for this record: Nc1ncnc2c1c(-c1cc(F)c3c(c1)NCCO3)nn2C1CCc2ccccc2C1 (centres unmarked)
[A] 4.47

[Q] Look up and state reported BTK @ 0.01 μM (% Inh) for Nc1ncnc2c1c(-c1cc(O)c(F)c(F)c1)nn2C1Cc2cc(F)ccc2C1=O (centres unmarked)
[A] 9.24

Further cases:
[Q] Report BTK @ 0.01 μM (% Inh), nothing else, for this compound: `Nc1cc(-c2nn(C3Cc4ccccc4C3)c3ncnc(N)c23)ccc1F`
[A] 34.28

[Q] Specify BTK @ 0.01 μM (% Inh) for Nc1ncnc2c1c(-c1cc(O)c(F)c(F)c1)nn2C1CCc2ncccc21 (centres unmarked) and stop.
[A] 8.16

[Q] Supply recorded BTK @ 0.01 μM (% Inh) for `Nc1ncnc2c1c(-c1ccc(F)c(F)c1)nn2C1Cc2ccccc2C1` here.
[A] 8.84

[Q] Fill in BTK @ 0.01 μM (% Inh) for record `NC(=O)c1cc(-c2nn(C3Cc4ccccc4C3)c3ncnc(N)c23)cc(O)c1F`
[A] 0.44

[Q] Tell me measured BTK @ 0.01 μM (% Inh) for `NC(=O)c1ccc(-c2nn(C3Cc4ccccc4C3)c3ncnc(N)c23)cc1O` please.
[A] 6.49

[Q] Provide BTK @ 0.01 μM (% Inh) value for the following compound: Nc1ncnc2c1c(-c1cc(O)c(F)c(F)c1)nn2C1Cc2ccc(F)cc2C1 (centres unmarked)
[A] 19.98
